From: paper PMC4805166

Field: MIC Ea. Provide a value for each of the molecules that follow.
- System: Erwinia amylovora PMV6076
- Measurement Notes: MIC, in vitro growth inhibition
- Type: cell-based
- Test Conditions: TSB, 25°C, 48 h, OD 600 nm; tested at 3.1, 6.2, 12.5, 25, 50 μM; three replicates, experiment repeated twice; MIC = lowest concentration with no growth
Where a SMILES comes first, the peptide text is derived from it. Side-chain parts run from the residue outwards. [ ]: non-standard residue; d: D form. The star is where a group is joined. Pentanoyl(4-Me) = CC(C)CCC(=O)*; Hexanoyl = CCCCCC(=O)*; Butyryl = CCCC(=O)*

Each molecule below has a recorded value; state its MIC Ea.
1. CCCC(=O)N[C@@H](CCCCN)C(=O)N[C@@H](CC(C)C)C(=O)NCCCC[C@@H]1NC(=O)[C@H](CCCCN)NC(=O)[C@H](CC(C)C)NC(=O)[C@H](CCCCN)NC(=O)[C@H](CCCCN)NC(=O)[C@H](CCC(N)=O)NC(=O)[C@H](CC(C)C)NC(=O)[C@H](CCCCN)NC(=O)[C@H](CCCCN)NC(=O)[C@H](Cc2c[nH]cn2)NC1=O [BPC728, c(KKLKK(LK-CO-C3H7)HKKLQ)] (cyclo(HKKLQKKLKK([Leu-Lys-Butyryl])))
2. CCCCCC(=O)NCCCC[C@H]1NC(=O)[C@H](CCC(N)=O)NC(=O)[C@H](CC(C)C)NC(=O)[C@H](CCCCN)NC(=O)[C@H](CCCCN)NC(=O)[C@H](Cc2ccccc2)NC(=O)[C@H](CCCCN)NC(=O)[C@H](CCCCN)NC(=O)[C@H](CC(C)C)NC(=O)[C@H](CCCCN)NC1=O [BPC684] (cyclo(FKKLQ[dK](Hexanoyl)KLKK))
3. CCCCCC(=O)N[C@@H](CCCCN)C(=O)N[C@@H](CC(C)C)C(=O)NCCCC[C@H]1NC(=O)[C@H](CCCCN)NC(=O)[C@H](CC(C)C)NC(=O)[C@H](CCCCN)NC(=O)[C@H](CCCCN)NC(=O)[C@H](CCC(N)=O)NC(=O)[C@H](CC(C)C)NC(=O)[C@H](CCCCN)NC(=O)[C@H](CCCCN)NC(=O)[C@H](Cc2ccccc2)NC1=O [BPC672, c(KKLKk(LK-CO-nC5H11)FKKLQ)] (cyclo(FKKLQKKLK[dK]([Leu-Lys-Hexanoyl])))
4. CCCCCC(=O)NCCCC[C@@H]1NC(=O)[C@H](CCC(N)=O)NC(=O)[C@H](CC(C)C)NC(=O)[C@H](CCCCN)NC(=O)[C@H](CCCCN)NC(=O)[C@H](Cc2c[nH]cn2)NC(=O)[C@H](CCCCN)NC(=O)[C@H](CCCCN)NC(=O)[C@H](CC(C)C)NC(=O)[C@H](CCCCN)NC1=O [BPC688] (cyclo(HKKLQK(Hexanoyl)KLKK))

Reply text:
[">50 µM", "25 to 50 µM", "25 to 50 µM", ">50 µM"]

Each molecule below has a recorded value; state its MIC Ea.
1. CC(C)CCC(=O)NCCCC[C@@H]1NC(=O)[C@H](CCCCN)NC(=O)[C@H](CC(C)C)NC(=O)[C@H](CCCCN)NC(=O)[C@H](CCCCN)NC(=O)[C@H](CCC(N)=O)NC(=O)[C@H](CC(C)C)NC(=O)[C@H](CCCCN)NC(=O)[C@H](CCCCN)NC(=O)[C@H](Cc2c[nH]cn2)NC1=O [BPC638, c(KKLKK(CO-isoC5H11)HKKLQ)] (cyclo(HKKLQKKLKK(Pentanoyl(4-Me))))
2. CCCC(=O)NCCCC[C@@H]1NC(=O)[C@H](CCCCN)NC(=O)[C@H](CCC(N)=O)NC(=O)[C@H](CC(C)C)NC(=O)[C@H](CCCCN)NC(=O)[C@H](CCCCN)NC(=O)[C@H](Cc2c[nH]cn2)NC(=O)[C@H](CCCCN)NC(=O)[C@H](CCCCN)NC(=O)[C@H](CC(C)C)NC1=O [BPC720] (cyclo(HKKLQKK(Butyryl)LKK))
3. CCCCCC(=O)NCCCC[C@@H]1NC(=O)[C@H](CCCCN)NC(=O)[C@H](CC(C)C)NC(=O)[C@H](CCCCN)NC(=O)[C@H](CCCCN)NC(=O)[C@H](CCC(N)=O)NC(=O)[C@H](CC(C)C)NC(=O)[C@H](CCCCN)NC(=O)[C@H](CCCCN)NC(=O)[C@H](Cc2ccccc2)NC1=O [BPC528, c(KKLKK(CO-nC5H11)FKKLQ)] (cyclo(FKKLQKKLKK(Hexanoyl)))
4. CC(C)CCC(=O)NCCCC[C@@H]1NC(=O)[C@H](CCCCN)NC(=O)[C@H](CC(C)C)NC(=O)[C@H](CCCCN)NC(=O)[C@H](CCCCN)NC(=O)[C@H](CCC(N)=O)NC(=O)[C@H](CC(C)C)NC(=O)[C@H](CCCCN)NC(=O)[C@H](CCCCN)NC(=O)[C@H](Cc2ccccc2)NC1=O [BPC504, c(KKLKK(CO-isoC5H11)FKKLQ)] (cyclo(FKKLQKKLKK(Pentanoyl(4-Me))))

Reply text:
25 to 50 µM
>50 µM
12.5 to 25 µM
12.5 to 25 µM

Each molecule below has a recorded value; state its MIC Ea.
1. CCCC(=O)NCCCC[C@@H]1NC(=O)[C@H](CCC(N)=O)NC(=O)[C@H](CC(C)C)NC(=O)[C@H](CCCCN)NC(=O)[C@H](CCCCN)NC(=O)[C@H](Cc2ccccc2)NC(=O)[C@H](CCCCN)NC(=O)[C@H](CCCCN)NC(=O)[C@H](CC(C)C)NC(=O)[C@H](CCCCN)NC1=O [BPC710] (cyclo(FKKLQK(Butyryl)KLKK))
2. CCCC(=O)NCCCC[C@@H]1NC(=O)[C@H](CCCCN)NC(=O)[C@H](CCC(N)=O)NC(=O)[C@H](CC(C)C)NC(=O)[C@H](CCCCN)NC(=O)[C@H](CCCCN)NC(=O)[C@@H](Cc2ccccc2)NC(=O)[C@H](CCCCN)NC(=O)[C@H](CCCCN)NC(=O)[C@H](CC(C)C)NC1=O [BPC714, c(KK(CO-C3H7)LKKfKKLQ)] (cyclo(KK(Butyryl)LKK[dF]KKLQ))
3. CCCCCC(=O)NCCCC[C@H]1NC(=O)[C@H](CCCCN)NC(=O)[C@H](CC(C)C)NC(=O)[C@H](CCCCN)NC(=O)[C@H](CCCCN)NC(=O)[C@H](CCC(N)=O)NC(=O)[C@H](CC(C)C)NC(=O)[C@H](CCCCN)NC(=O)[C@H](CCCCN)NC(=O)[C@H](Cc2ccccc2)NC1=O [BPC628, c(KKLKk(CO-nC5H11)FKKLQ)] (cyclo(FKKLQKKLK[dK](Hexanoyl)))
4. CCCCCC(=O)N[C@@H](CCCCN)C(=O)N[C@@H](CC(C)C)C(=O)NCCCC[C@@H]1NC(=O)[C@H](CCCCN)NC(=O)[C@H](CC(C)C)NC(=O)[C@H](CCCCN)NC(=O)[C@H](CCCCN)NC(=O)[C@H](CCC(N)=O)NC(=O)[C@H](CC(C)C)NC(=O)[C@H](CCCCN)NC(=O)[C@H](CCCCN)NC(=O)[C@@H](Cc2ccccc2)NC1=O [BPC674, c(KKLKK(LK-CO-nC5H11)fKKLQ)] (cyclo(KKLKK([Leu-Lys-Hexanoyl])[dF]KKLQ))

Reply text:
["25 to 50 µM", "25 to 50 µM", "25 to 50 µM", "25 to 50 µM"]

====

- System: erythrocyte suspensions of horse blood;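 also: Read-out is hemoglobin release into the supernatant, with a buffer-only blank subtracted as the 0% baseline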
- Test Conditions: 150 µM peptide; horse erythrocytes 5% vol/vol, TRIS buffer pH 7.2, 1 h at 37°C, absorbance 540 nm; relative to melittin 100 μM; ± confidence interval (α = 0.05)
Where a SMILES comes first, the peptide text is derived from it. [ ]: non-standard residue; d: D form. The star is where a group is joined. Octanoyl = CCCCCCCC(=O)*; Hexanoyl = CCCCCC(=O)*
Observed Property: Hemolysis (%) 150 µM
Answers are plain numbers, in %.

Molecule: CCCCCC(=O)NCCCC[C@H]1NC(=O)[C@H](CCCCN)NC(=O)[C@H](CCC(N)=O)NC(=O)[C@H](CC(C)C)NC(=O)[C@H](CCCCN)NC(=O)[C@H](CCCCN)NC(=O)[C@H](Cc2ccccc2)NC(=O)[C@H](CCCCN)NC(=O)[C@H](CCCCN)NC(=O)[C@H](CC(C)C)NC1=O [BPC678] (cyclo(FKKLQK[dK](Hexanoyl)LKK))
Hemolysis (%) 150 µM: 68

Each molecule below has a recorded value; state its Hemolysis (%) 150 µM.
1. CCCCCCCC(=O)NCCCC[C@H]1NC(=O)[C@H](CCCCN)NC(=O)[C@H](CC(C)C)NC(=O)[C@H](CCCCN)NC(=O)[C@H](CCCCN)NC(=O)[C@H](CCC(N)=O)NC(=O)[C@H](CC(C)C)NC(=O)[C@H](CCCCN)NC(=O)[C@H](CCCCN)NC(=O)[C@H](Cc2ccccc2)NC1=O [BPC666, c(KKLKk(CO-C7H15)FKKLQ)] (cyclo(FKKLQKKLK[dK](Octanoyl)))
2. CCCCCC(=O)NCCCC[C@@H]1NC(=O)[C@H](CCC(N)=O)NC(=O)[C@H](CC(C)C)NC(=O)[C@H](CCCCN)NC(=O)[C@H](CCCCN)NC(=O)[C@@H](Cc2ccccc2)NC(=O)[C@H](CCCCN)NC(=O)[C@H](CCCCN)NC(=O)[C@H](CC(C)C)NC(=O)[C@H](CCCCN)NC1=O [BPC686, c(K(CO-nC5H11)KLKKfKKLQ)] (cyclo(K(Hexanoyl)KLKK[dF]KKLQ))

Reply text:
61
10
